- STUDY TARGET: High affinity choline transporter 1 (Homo sapiens)
- Sequence (Q9GZV3 whole entry): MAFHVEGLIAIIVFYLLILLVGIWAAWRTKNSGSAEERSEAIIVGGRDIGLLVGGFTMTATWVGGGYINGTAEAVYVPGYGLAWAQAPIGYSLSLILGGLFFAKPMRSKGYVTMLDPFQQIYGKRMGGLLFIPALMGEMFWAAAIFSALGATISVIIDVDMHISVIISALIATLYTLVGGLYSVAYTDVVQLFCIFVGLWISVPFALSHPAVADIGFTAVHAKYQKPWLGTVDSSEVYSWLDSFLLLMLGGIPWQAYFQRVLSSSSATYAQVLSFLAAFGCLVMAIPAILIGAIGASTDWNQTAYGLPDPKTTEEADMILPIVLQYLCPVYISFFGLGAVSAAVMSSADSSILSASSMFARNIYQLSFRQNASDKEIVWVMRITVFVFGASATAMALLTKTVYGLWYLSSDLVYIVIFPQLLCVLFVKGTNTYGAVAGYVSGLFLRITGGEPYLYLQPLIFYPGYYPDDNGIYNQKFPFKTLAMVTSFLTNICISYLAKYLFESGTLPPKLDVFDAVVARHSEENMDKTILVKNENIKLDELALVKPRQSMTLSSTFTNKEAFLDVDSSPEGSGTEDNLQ
- METHOD NOTES: human choline transporter blockers, potency – cell-based, 5-point CRC, membrane potential dye, dose response (AID 504840)
- Format: functional
Calls of active or inactive are those of the source.
METRIC: IC50

Some solved entries appear below for comparison.
COMPOUND: CSc1ccc(S(=O)(=O)N2CCC(C(=O)N3CCc4ccccc4C3)CC2)cc1
MEASURED RESULT: 17.4 µM (active)
--
COMPOUND: Cc1nnc(NCc2cccc(Cl)c2)c2ccccc12
MEASURED RESULT: 9.8 µM (active)
--
COMPOUND: COc1ccc2c(c1)OC(O)(C(F)(F)C(F)F)CC2=O (stereo unspecified)
MEASURED RESULT: 13.2 µM (active)
--
COMPOUND: CCOC(=O)c1ccccc1Oc1c(F)c(F)nc(NCCO)c1F
MEASURED RESULT: 14.5 µM (active)
--
COMPOUND: COc1cc(/C=C2/C(=O)c3cccc([N+](=O)[O-])c3C2=O)c(Br)cc1O
MEASURED RESULT: 9.13 µM (active)

Continue with the compound presented below.
Query string: Retrieve IC50 measured for Cc1cccc(OCC(O)Cn2c(=N)n(Cc3ccccc3)c3ccccc32)c1 (stereo unspecified) and print it.
Result string: 6.92 µM (active)

---

Entries and their EC50 values follow.
- METHOD NOTES: alpha-synuclein stem-loop luciferase translation blockers – H4 neuroglioma cells, luminescence, confirmation (AID 1988)
- Format: functional, cell-based
Active and inactive are the calls of the source.

Some solved entries appear below for comparison.
MOLECULE: CCOc1ccccc1CNC(=O)c1nn(C)c2c1CS(=O)(=O)c1ccccc1-2
EC50: > 120 µM (not active)
--
MOLECULE: CCC(C)(C)c1ccc(Oc2ccc(NC(=O)COC(=O)C3=COCCO3)cc2)cc1
EC50: 8.92 µM (active)
--
MOLECULE: CCN(CC)S(=O)(=O)c1ccc(/C(O)=C(\C#N)c2nc3ccccc3n2C)cc1
EC50: > 120 µM (not active)

Continue with the molecule presented below.
Query string: Retrieve EC50 measured for O=C(NC1=NCCS1)C1COc2ccccc2O1 (centres undefined) and print it.
Result string: 0.149 µM (active)
